# test system: T1, growth differentiation factor 8 (GDF-8) (UniProt O14793 267-375)
# T1 construct: also called myostatin
# T1 sequence (looked up): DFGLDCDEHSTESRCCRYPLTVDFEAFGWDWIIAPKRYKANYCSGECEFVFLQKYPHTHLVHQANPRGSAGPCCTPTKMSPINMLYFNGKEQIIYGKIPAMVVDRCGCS
# run description: SPR (Biacore 8K), Fc protein captured on anti-human IgG, ligand injected
property: Kd (nM)
Numeric only. Scale: nM

What the record says about ActRIIB-B1B4 (SEQ ID NO: 117) chimera-Fc protein (Fc fusion, Tested as chimera-Fc protein; not shown: linker (if any) and Fc domain) GRGEAETRECLFFNANWELERTNQSGLERCEGEQDKRLHCYASWRNSSGSIEIVKQGCWLDDFNCYDRQECVATEENPQVYFCCCEGNFCNERFTHLPEAGGPEVTYEPPPTAPT : Kd is 0.0718

What the record says about ActRIIA-B7 (SEQ ID NO: 100) chimera-Fc protein (Fc fusion, Tested as chimera-Fc protein; not shown: linker (if any) and Fc domain) GAILGRSETQECLFFNANWEKDRTNQTGVEPCYGDKDKRRHCFATWKNISGSIEIVKQGCWLDDINCYDRTDCVEKKDSPEVYFCCCEGNMCNERFTHLPEMEVTQPTS : Kd is 0.0121

What the record says about ActRIIA-A5 (SEQ ID NO: 107) chimera-Fc protein (Fc fusion, Tested as chimera-Fc protein; not shown: linker (if any) and Fc domain) GAILGRSETQECLFFNANWEKDRTNQTGVEPCYGDKDKRRHCFATWKNISGSIEIVKQGCWLDDFNCYDRQECVEKKDSPEVYFCCCEGNMCNEKFSYFPEMEVTQPTS : Kd is 0.122

What the record says about ActRIIB-B1B2B3B4 (SEQ ID NO: 119) chimera-Fc protein (Fc fusion, Tested as chimera-Fc protein; not shown: linker (if any) and Fc domain) GRGEAETRECLFFNANWELERTNQTGVEPCEGEQDKRRHCFATWKNISGSIEIVKQGCWLDDFNCYDRQECVATEENPQVYFCCCEGNFCNERFTHLPEAGGPEVTYEPPPTAPT : Kd is 0.00354

What the record says about ActRIIB-A8 (SEQ ID NO: 126) chimera-Fc protein (Fc fusion, Tested as chimera-Fc protein; not shown: linker (if any) and Fc domain) GRGEAETRECIYYNANWELERTNQSGLERCEGEQDKRLHCYASWRNSSGTIELVKKGCWLDDFNCYDRQECVATEENPQVYFCCCEGNFCNERFTHLPEMEVTQPTS : Kd is 0.00423

What the record says about ActRIIB-A6 (SEQ ID NO: 124) chimera-Fc protein (Fc fusion, Tested as chimera-Fc protein; not shown: linker (if any) and Fc domain) GRGEAETRECIYYNANWELERTNQSGLERCEGEQDKRLHCYASWRNSSGTIELVKKGCWLDDFNCYDRQECVATKDSPEVYFCCCEGNFCNERFTHLPEAGGPEVTYEPPPTAPT : Kd is 0.0288
